- ASSAY_OVERVIEW: Thermodynamic (aqueous) solubility, 24 hours at 25° C., HPLC quantitation
- Type: physicochemical
- REPORTED_CONDITIONS: thermodynamic from solid; Media DI Water; 25° C., 24 hours; final pH 3.97-4.10; read-out: Thermodynamic solubility of pinoxaden component
PARAMETER_MEASURED: solubility thermodynamic at 24 h

Report solubility thermodynamic at 24 h for CCc1cc(C)cc(CC)c1-c1c(OC(=O)C(C)(C)C)n2n(c1=O)CCOCC2 [Pinoxaden freeform] please.
~230 µg/mL

====

- ASSAY_OVERVIEW: physchem
- Assay type: physicochemical
- REPORTED_CONDITIONS: 25 °C, pH 4.04, water, thermodynamic from solid
PARAMETER_MEASURED: solubility thermodynamic at 24 h (µg/mL)
Number in µg/mL, nothing else.

Report solubility thermodynamic at 24 h for Nc1c(Cl)c(F)nc(OCC(=O)O)c1Cl [Fluroxypyr freeform, Fluroxypyr] please.
290
